The reported measurements were obtained from patent US20240425492A1.

Assay: physchem
Settings: 37 °C, pH 1, simulated gastric fluid, thermodynamic from solid
endpoint label: solubility at 24 h

Find the recorded solubility at 24 h belonging to CN1C[C@H]2C[C@@]2(C#Cc2cc3ncnc(Nc4cccc(Cl)c4F)c3cc2NC(=O)/C=C/CN2CCOCC2)C1 [Form F] and report it.
> 2000 µg/mL

* * *

Test: Solubility study in aqueous media at 37° C. (HPLC of supernatants, pH)
Conditions: pH 1.0 HCl solution (0.1N), 37 °C, pH 1, simulated gastric fluid, thermodynamic from solid
endpoint label: solubility at 2 h

Find the recorded solubility at 2 h belonging to CN1C[C@H]2C[C@@]2(C#Cc2cc3ncnc(Nc4cccc(Cl)c4F)c3cc2NC(=O)/C=C/CN2CCOCC2)C1 [Form C] and report it.
> 2000 µg/mL

* * *

Assay: Solubility study in aqueous media at 37° C. (HPLC of supernatants, pH)
Conditions: SGF, 37 °C, pH 2, simulated gastric fluid, thermodynamic from solid
endpoint label: solubility at 24 h

Find the recorded solubility at 24 h belonging to CN1C[C@H]2C[C@@]2(C#Cc2cc3ncnc(Nc4cccc(Cl)c4F)c3cc2NC(=O)/C=C/CN2CCOCC2)C1 [Form C] and report it.
> 2000 µg/mL

* * *

Experiment: physchem
Settings: 37 °C, water, thermodynamic from solid
endpoint label: solubility

Find the recorded solubility belonging to CN1C[C@H]2C[C@@]2(C#Cc2cc3ncnc(Nc4cccc(Cl)c4F)c3cc2NC(=O)/C=C/CN2CCOCC2)C1 [Form F] and report it.
< 10 µg/mL

* * *

Assay: physchem
Conditions: 37 °C, pH 4.5, aqueous buffer, thermodynamic from solid
endpoint label: solubility at 24 h

Find the recorded solubility at 24 h belonging to CN1C[C@H]2C[C@@]2(C#Cc2cc3ncnc(Nc4cccc(Cl)c4F)c3cc2NC(=O)/C=C/CN2CCOCC2)C1 [Form F] and report it.
> 2000 µg/mL

* * *

Test: physchem
Conditions: 37 °C, pH 4.5, aqueous buffer, thermodynamic from solid
endpoint label: solubility at 2 h

Find the recorded solubility at 2 h belonging to CN1C[C@H]2C[C@@]2(C#Cc2cc3ncnc(Nc4cccc(Cl)c4F)c3cc2NC(=O)/C=C/CN2CCOCC2)C1 [Form F] and report it.
> 2 mg/mL

* * *

Experiment: physchem
Settings: 37 °C, water, thermodynamic from solid
endpoint label: solubility at 24 h (µg/mL)
Answers are plain numbers, in µg/mL.

Find the recorded solubility at 24 h belonging to CN1C[C@H]2C[C@@]2(C#Cc2cc3ncnc(Nc4cccc(Cl)c4F)c3cc2NC(=O)/C=C/CN2CCOCC2)C1 [Form F] and report it.
7.5

* * *

Experiment: Solubility study in aqueous media at 37° C. (HPLC of supernatants, pH)
Conditions: pH 1.0 HCl solution (0.1N), 37 °C, pH 1, simulated gastric fluid, thermodynamic from solid
endpoint label: solubility at 24 h

Find the recorded solubility at 24 h belonging to CN1C[C@H]2C[C@@]2(C#Cc2cc3ncnc(Nc4cccc(Cl)c4F)c3cc2NC(=O)/C=C/CN2CCOCC2)C1 [Form C] and report it.
> 2000 µg/mL

* * *

Assay: Solubility study in aqueous media at 37° C. (HPLC of supernatants, pH)
Conditions: pure water, 37 °C, water, thermodynamic from solid
endpoint label: solubility

Find the recorded solubility belonging to CN1C[C@H]2C[C@@]2(C#Cc2cc3ncnc(Nc4cccc(Cl)c4F)c3cc2NC(=O)/C=C/CN2CCOCC2)C1 [Form C] and report it.
< 10 µg/mL

* * *

Assay: physchem
Details: 37 °C, water, thermodynamic from solid
endpoint label: solubility at 2 h (µg/mL)
Give bare numbers, in µg/mL.

Find the recorded solubility at 2 h belonging to CN1C[C@H]2C[C@@]2(C#Cc2cc3ncnc(Nc4cccc(Cl)c4F)c3cc2NC(=O)/C=C/CN2CCOCC2)C1 [Form F] and report it.
7
